target: Ribosomal protein S6 kinase alpha-5 (Homo sapiens); conditions: at 1 µM;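 further: mean inhibition of MSK1, from screening of the GSK PKIS inhibitor set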
Reported inhibition by item:
Report the value in % with no unit label.

Some compounds with known inhibition results, for comparison:
Cc1ccc2c(-c3ccnc(Nc4cccc(C(F)(F)F)c4)n3)c(-c3ccccc3)nn2n1 | -4.64
Cc1ccc(C(=O)NC2CC2)cc1-c1ccc2[nH]ncc2c1 | -3.97
N#Cc1cccc(Nc2nccc(-c3cnn4ncccc34)n2)c1 | 8.54
COc1cc2ncnc(Nc3ccc4c(cnn4Cc4ccccc4)c3)c2cc1OC | 7.6
CN(C)CCCn1c(-c2nonc2N)nc2cnccc21 | 28.7
CN(c1ccc(NC(=O)Nc2ccc(OC(F)(F)F)cc2)cc1)c1ccnc(Nc2cccc(S(N)(=O)=O)c2)n1 | -1.11

[Q] Query (compound): [O-][S+]1CCN(Cc2ccc(-c3ccc4ncnc(Nc5ccc(OCc6ccccc6)c(Cl)c5)c4c3)o2)CC1 ; field requested: inhibition
[A] 1.03

[Q] Query (compound): O=C1Nc2ccccc2/C1=C/Nc1ccc2[nH]c(=O)[nH]c2c1 ; field requested: inhibition
[A] 5.92

[Q] Query (compound): NC(=O)c1sc(-n2cnc3ccccc32)cc1OCc1ccccc1Br ; field requested: inhibition
[A] 10

[Q] Query (compound): CN(C)C(=O)O[C@@H]1CN[C@@H](C#Cc2cc3ncnc(Nc4ccc(OCc5cccc(F)c5)c(Cl)c4)c3s2)C1 ; field requested: inhibition
[A] 2.9

[Q] Query (compound): CCCN1CCCC(c2ccc(Nc3nc(Nc4cc(F)ccc4C(N)=O)c4cc[nH]c4n3)c(OC)c2)C1 (stereo unspecified) ; field requested: inhibition
[A] 5.31
